Data provenance is ChEMBL document CHEMBL5331111.

system: Mycolicibacterium smegmatis; experiment: Antimycobacterial activity against Mycobacterium smegmatis MC2 155 assessed as inhibition of bacterial growth measured after 2 days by resazurin dye based analysis; format: functional; details: MC2 155, 48 h, time 2 day
Recorded metric: MIC (µg/mL)
Enter your answer as a number in µg/mL; do not include the unit.

Which MIC value belongs to "CN1C(=O)[C@@H]2NC(=O)[C@@H]3NC(=O)[C@@H](c4ccc(O)cc4)NC(=O)[C@H](NC(=O)Cc4ccc(O)cc4)Cc4c[nH]c5cc(ccc45)-c4cc3cc(c4O)Oc3ccc(cc3)C[C@H]1C(=O)N[C@@H](C(=O)NCCC[N+](C)(C)C)c1ccc(O)c(c1)Oc1ccc2cc1" ?
0.5

Which MIC value belongs to "CN[C@H](CC(C)C)C(=O)N[C@H]1C(=O)N[C@@H](CC(N)=O)C(=O)N[C@H]2C(=O)N[C@H]3C(=O)N[C@H](C(=O)N[C@H](C(=O)O)c4cc(O)cc(O)c4-c4cc3ccc4O)[C@H](O)c3ccc(c(Cl)c3)Oc3cc2cc(c3O[C@@H]2O[C@H](CO)[C@@H](O)[C@H](O)[C@H]2O[C@H]2C[C@](C)(N)[C@H](O)[C@H](C)O2)Oc2ccc(cc2Cl)[C@H]1O" ?
4

Which MIC value belongs to CN(C)CCCNC(=O)[C@@H]1NC(=O)[C@@H]2Cc3ccc(cc3)Oc3cc4cc(c3O)-c3ccc5c(c[nH]c5c3)C[C@@H](NC(=O)C(NC(=O)CCCCCN)c3ccc(O)cc3)C(=O)N[C@H](c3ccc(O)cc3)C(=O)N[C@H]4C(=O)N[C@@H](C(=O)N2C)c2ccc(cc2)Oc2cc1ccc2O (some centres not stated) ?
0.5

Here is another compound to look at.
Which MIC value belongs to "CN(C)CCCNCCCNC(=O)[C@@H]1NC(=O)[C@@H]2Cc3ccc(cc3)Oc3cc4cc(c3O)-c3ccc5c(c[nH]c5c3)C[C@@H](NC(=O)Cc3ccc(O)cc3)C(=O)N[C@H](c3ccc(O)cc3)C(=O)N[C@H]4C(=O)N[C@@H](C(=O)N2C)c2ccc(cc2)Oc2cc1ccc2O" ?
1

* * *

Each entry below carries its reported IC50 at 1 h.
test: Hemolytic activity in human RBC incubated for 1 hr by absorbance based analysis; type: toxicity, cell-based, Erythrocyte; conditions: red blood cells (erythrocytes)

Which IC50 at 1 h value belongs to "CN1C(=O)[C@@H]2NC(=O)[C@@H]3NC(=O)[C@@H](c4ccc(O)cc4)NC(=O)[C@H](NC(=O)Cc4ccc(O)cc4)Cc4c[nH]c5cc(ccc45)-c4cc3cc(c4O)Oc3ccc(cc3)C[C@H]1C(=O)N[C@@H](C(=O)NCCC[N+](C)(C)C)c1ccc(O)c(c1)Oc1ccc2cc1" ?
> 256 µg/mL

Here is another molecule to look at.
Which IC50 at 1 h value belongs to CN(C)CCCNC(=O)[C@@H]1NC(=O)[C@@H]2Cc3ccc(cc3)Oc3cc4cc(c3O)-c3ccc5c(c[nH]c5c3)C[C@@H](NC(=O)C(NC(=O)CCCCCN)c3ccc(O)cc3)C(=O)N[C@H](c3ccc(O)cc3)C(=O)N[C@H]4C(=O)N[C@@H](C(=O)N2C)c2ccc(cc2)Oc2cc1ccc2O (some centres not stated) ?
> 256 µg/mL

* * *

system: Staphylococcus aureus; assay: Antibacterial activity against Staphylococcus aureus ATCC 33591 assessed as reduction in bacterial growth by Mueller-Hinton broth based assay; assay type: functional
Recorded metric: MIC (µg/mL)
Enter your answer as a number in µg/mL; do not include the unit.

Which MIC value belongs to CN1C(=O)[C@@H]2NC(=O)[C@@H]3NC(=O)[C@@H](c4ccc(O)cc4)NC(=O)[C@H](NC(=O)C(Nc4ccc(F)cc4)c4ccc(O)cc4)Cc4c[nH]c5cc(ccc45)-c4cc3cc(c4O)Oc3ccc(cc3)C[C@H]1C(=O)N[C@@H](C(=O)O)c1ccc(O)c(c1)Oc1ccc2cc1 (some centres undefined) ?
8

Which MIC value belongs to CN1C(=O)[C@@H]2NC(=O)[C@@H]3NC(=O)[C@@H](c4ccc(O)cc4)NC(=O)[C@H](NC(=O)C(Nc4cccc(O)c4)c4ccc(O)cc4)Cc4c[nH]c5cc(ccc45)-c4cc3cc(c4O)Oc3ccc(cc3)C[C@H]1C(=O)N[C@@H](C(=O)O)c1ccc(O)c(c1)Oc1ccc2cc1 (some centres undefined) ?
4

Here is another compound to look at.
Which MIC value belongs to CN1C(=O)[C@@H]2NC(=O)[C@@H]3NC(=O)[C@@H](c4ccc(O)cc4)NC(=O)[C@H](NC(=O)C(Nc4cc(O)cc(O)c4)c4ccc(O)cc4)Cc4c[nH]c5cc(ccc45)-c4cc3cc(c4O)Oc3ccc(cc3)C[C@H]1C(=O)N[C@@H](C(=O)O)c1ccc(O)c(c1)Oc1ccc2cc1 (some centres undefined) ?
4

* * *

system: Mycolicibacterium smegmatis; assay: Antimycobacterial activity against Mycobacterium smegmatis MC2 155 assessed as inhibition of bacterial growth measured after 2 days by resazurin dye based analysis; format: functional; settings: MC2 155, 48 h, time 2 day
Each entry below carries its reported MIC.

Which MIC value belongs to CN1C(=O)[C@@H]2NC(=O)[C@@H]3NC(=O)[C@@H](c4ccc(O)cc4)NC(=O)[C@H](NC(=O)C(Nc4cc(F)cc(F)c4F)c4ccc(O)cc4)Cc4c[nH]c5cc(ccc45)-c4cc3cc(c4O)Oc3ccc(cc3)C[C@H]1C(=O)N[C@@H](C(=O)O)c1ccc(O)c(c1)Oc1ccc2cc1 (some centres undefined) ?
> 128 µg/mL

Which MIC value belongs to CN1C(=O)[C@@H]2NC(=O)[C@@H]3NC(=O)[C@@H](c4ccc(O)cc4)NC(=O)[C@H](NC(=O)C(Nc4cccc(O)c4)c4ccc(O)cc4)Cc4c[nH]c5cc(ccc45)-c4cc3cc(c4O)Oc3ccc(cc3)C[C@H]1C(=O)N[C@@H](C(=O)O)c1ccc(O)c(c1)Oc1ccc2cc1 (some centres undefined) ?
> 128 µg/mL

Which MIC value belongs to "CN1C(=O)[C@@H]2NC(=O)[C@@H]3NC(=O)[C@@H](c4ccc(O)cc4)NC(=O)[C@H](NC(=O)Cc4ccc(O)cc4)Cc4c[nH]c5cc(ccc45)-c4cc3cc(c4O)Oc3ccc(cc3)C[C@H]1C(=O)N[C@@H](C(=O)NCCC[N+]1(C)CCCC1)c1ccc(O)c(c1)Oc1ccc2cc1" ?
1 µg/mL

Here is another compound to look at.
Which MIC value belongs to CN1C(=O)[C@@H]2NC(=O)[C@@H]3NC(=O)[C@@H](c4ccc(O)cc4)NC(=O)[C@H](NC(=O)C(Nc4ccsc4)c4ccc(O)cc4)Cc4c[nH]c5cc(ccc45)-c4cc3cc(c4O)Oc3ccc(cc3)C[C@H]1C(=O)N[C@@H](C(=O)O)c1ccc(O)c(c1)Oc1ccc2cc1 (some centres undefined) ?
> 128 µg/mL

* * *

system: Mycolicibacterium smegmatis; experiment: Antimycobacterial activity against Mycobacterium smegmatis MC2 155 assessed as inhibition of bacterial growth measured after 2 days by resazurin dye based analysis; format: functional; settings: MC2 155, 48 h, time 2 day
Recorded metric: MIC

Some compounds with known MIC results, for comparison:
Which MIC value belongs to CN1C(=O)[C@@H]2NC(=O)[C@@H]3NC(=O)[C@@H](c4ccc(O)cc4)NC(=O)[C@H](NC(=O)C(Nc4cc(C(F)(F)F)cc(C(F)(F)F)c4)c4ccc(O)cc4)Cc4c[nH]c5cc(ccc45)-c4cc3cc(c4O)Oc3ccc(cc3)C[C@H]1C(=O)N[C@@H](C(=O)O)c1ccc(O)c(c1)Oc1ccc2cc1 (stereo partly drawn) ?
> 128 µg/mL

Which MIC value belongs to CN1C(=O)[C@@H]2NC(=O)[C@@H]3NC(=O)[C@@H](c4ccc(O)cc4)NC(=O)[C@H](NC(=O)C(Nc4cccc(C(F)(F)F)c4)c4ccc(O)cc4)Cc4c[nH]c5cc(ccc45)-c4cc3cc(c4O)Oc3ccc(cc3)C[C@H]1C(=O)N[C@@H](C(=O)O)c1ccc(O)c(c1)Oc1ccc2cc1 (stereo partly drawn) ?
> 128 µg/mL

Here is another compound to look at.
Which MIC value belongs to "CN1C(=O)[C@@H](c2cc(Cl)c(O)c(Cl)c2)NC(=O)[C@@H]2NC(=O)[C@@H](c3cc(Cl)c(O)c(Cl)c3)NC(=O)[C@H](NC(=O)C(=O)c3cc(Cl)c(O)c(Cl)c3)Cc3c[nH]c4cc(ccc34)-c3cc2cc(c3O)Oc2ccc(cc2)C[C@H]1C(=O)N[C@@H](C(=O)O)c1ccc(O)cc1" ?
> 128 µg/mL

* * *

system: Mycolicibacterium smegmatis; test: Antimycobacterial activity against Mycobacterium smegmatis MC2 155 assessed as inhibition of bacterial growth measured after 2 days by resazurin dye based analysis; type: functional; settings: MC2 155, 48 h, time 2 day
Each entry below carries its reported MIC.

Which MIC value belongs to CN1C(=O)[C@@H]2NC(=O)[C@@H]3NC(=O)[C@@H](c4ccc(O)cc4)NC(=O)[C@H](NC(=O)C(Nc4ccc(F)cc4)c4ccc(O)cc4)Cc4c[nH]c5cc(ccc45)-c4cc3cc(c4O)Oc3ccc(cc3)C[C@H]1C(=O)N[C@@H](C(=O)O)c1ccc(O)c(c1)Oc1ccc2cc1 (stereo partly drawn) ?
> 128 µg/mL

Which MIC value belongs to CN1C(=O)[C@@H]2NC(=O)[C@@H]3NC(=O)[C@@H](c4ccc(O)cc4)NC(=O)[C@H](NC(=O)C(Nc4cc(O)cc(O)c4)c4ccc(O)cc4)Cc4c[nH]c5cc(ccc45)-c4cc3cc(c4O)Oc3ccc(cc3)C[C@H]1C(=O)N[C@@H](C(=O)O)c1ccc(O)c(c1)Oc1ccc2cc1 (stereo partly drawn) ?
> 128 µg/mL

Which MIC value belongs to CN1C(=O)[C@@H]2NC(=O)[C@@H]3NC(=O)[C@@H](c4ccc(O)cc4)NC(=O)[C@H](NC(=O)C(Nc4ccc(B(O)O)cc4)c4ccc(O)cc4)Cc4c[nH]c5cc(ccc45)-c4cc3cc(c4O)Oc3ccc(cc3)C[C@H]1C(=O)N[C@@H](C(=O)O)c1ccc(O)c(c1)Oc1ccc2cc1 (stereo partly drawn) ?
> 128 µg/mL
